The reported measurements were obtained from ChEMBL document CHEMBL4808148.

I'd appreciate it if you could supply inhibition values for the items below.
Biological target: Protein deacetylase HDAC6 (Homo sapiens)
Sequence (whole entry): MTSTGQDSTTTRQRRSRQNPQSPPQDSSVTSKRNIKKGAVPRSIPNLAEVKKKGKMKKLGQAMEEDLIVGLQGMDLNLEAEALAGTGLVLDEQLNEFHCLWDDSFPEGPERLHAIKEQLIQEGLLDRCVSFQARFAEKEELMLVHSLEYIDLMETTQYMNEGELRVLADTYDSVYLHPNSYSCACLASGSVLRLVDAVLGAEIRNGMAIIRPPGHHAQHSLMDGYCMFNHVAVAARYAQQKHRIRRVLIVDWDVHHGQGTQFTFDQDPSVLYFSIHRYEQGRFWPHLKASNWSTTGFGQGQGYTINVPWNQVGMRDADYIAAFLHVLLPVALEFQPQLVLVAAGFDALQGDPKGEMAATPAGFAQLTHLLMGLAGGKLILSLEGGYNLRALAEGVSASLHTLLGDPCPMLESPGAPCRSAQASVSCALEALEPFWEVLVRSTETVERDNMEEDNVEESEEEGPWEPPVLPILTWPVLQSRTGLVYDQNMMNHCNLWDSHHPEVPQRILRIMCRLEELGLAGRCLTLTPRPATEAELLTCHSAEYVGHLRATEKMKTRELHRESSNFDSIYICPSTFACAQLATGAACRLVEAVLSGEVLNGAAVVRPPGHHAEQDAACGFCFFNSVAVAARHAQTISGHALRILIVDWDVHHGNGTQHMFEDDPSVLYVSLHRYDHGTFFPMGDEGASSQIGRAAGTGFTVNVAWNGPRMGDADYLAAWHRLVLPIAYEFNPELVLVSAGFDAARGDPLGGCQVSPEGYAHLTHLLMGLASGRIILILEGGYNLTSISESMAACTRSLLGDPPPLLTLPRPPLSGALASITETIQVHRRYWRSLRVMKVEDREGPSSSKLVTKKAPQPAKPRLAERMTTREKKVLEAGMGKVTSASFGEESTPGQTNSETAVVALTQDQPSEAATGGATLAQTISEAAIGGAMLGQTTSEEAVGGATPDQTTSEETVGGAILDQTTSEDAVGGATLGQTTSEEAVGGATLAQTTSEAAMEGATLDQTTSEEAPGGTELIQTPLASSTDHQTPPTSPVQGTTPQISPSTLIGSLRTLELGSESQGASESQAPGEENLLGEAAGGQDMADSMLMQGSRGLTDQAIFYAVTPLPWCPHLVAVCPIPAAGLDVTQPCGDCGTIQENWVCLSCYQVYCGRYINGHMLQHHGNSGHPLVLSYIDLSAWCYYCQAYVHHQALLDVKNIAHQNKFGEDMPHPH
Conditions: at 10 µM
Out of some 5,600 compounds screened, about 390 (7%) showed an effect of 50% or more. The full list was thinned out, with strong results kept by preference.
Respond with the bare value in %.

Quick one: give measured inhibition for Cn1nccc1Nc1nccc(-c2ccn([C@H](CO)c3ccc(Cl)c(F)c3)c(=O)c2)n1 26.5

Quick one: give measured inhibition for COc1cc(CN(CCN)C(=O)c2cccs2)ccc1OCc1ccccc1 -2.87

Quick one: give measured inhibition for CCn1c(-c2nonc2N)nc2cnc(Oc3cccc(NC(=O)c4ccc(OCCN5CCOCC5)cc4)c3)cc21 7.09

Quick one: give measured inhibition for CC(C)C[C@H](NC(=O)CNC(=O)[C@H](Cc1ccc(O)cc1)NC(=O)[C@H](CO)NC(=O)[C@H](Cc1c[nH]c2ccccc12)NC(=O)[C@H](Cc1cnc[nH]1)NC(=O)[C@@H]1CCC(=O)N1)C(=O)N[C@@H](CCCNC(=N)N)C(=O)N1CCC[C@H]1C(=O)NCC(N)=O 18.4

Quick one: give measured inhibition for CC(C)C[C@H](NC(=O)[C@@H](COC(C)(C)C)NC(=O)[C@H](Cc1ccc(O)cc1)NC(=O)[C@H](CO)NC(=O)[C@H](Cc1c[nH]c2ccccc12)NC(=O)[C@H](Cc1cnc[nH]1)NC(=O)[C@@H]1CCC(=O)N1)C(=O)N[C@@H](CCCNC(=N)N)C(=O)N1CCC[C@H]1C(=O)NNC(N)=O 7.12

Quick one: give measured inhibition for CCCCCCCC(=O)N[C@H](CN1CCCC1)[C@H](O)c1ccc2c(c1)OCCO2 6.2
